Each recorded value in this set is attributed to patent US10377791B2.

Kindly state inhibition at 1 µM for each of the entries shown.
# TARGET_OR_TEST_SYSTEM: recombinant human 17β-HSD2 (Homo sapiens, UniProt P37059)
# Construct: made in house; host or cells: Sd9 (Sf9) insect cells, baculovirus (Bac to Bac Expression System)
# Sequence (P37059 whole entry): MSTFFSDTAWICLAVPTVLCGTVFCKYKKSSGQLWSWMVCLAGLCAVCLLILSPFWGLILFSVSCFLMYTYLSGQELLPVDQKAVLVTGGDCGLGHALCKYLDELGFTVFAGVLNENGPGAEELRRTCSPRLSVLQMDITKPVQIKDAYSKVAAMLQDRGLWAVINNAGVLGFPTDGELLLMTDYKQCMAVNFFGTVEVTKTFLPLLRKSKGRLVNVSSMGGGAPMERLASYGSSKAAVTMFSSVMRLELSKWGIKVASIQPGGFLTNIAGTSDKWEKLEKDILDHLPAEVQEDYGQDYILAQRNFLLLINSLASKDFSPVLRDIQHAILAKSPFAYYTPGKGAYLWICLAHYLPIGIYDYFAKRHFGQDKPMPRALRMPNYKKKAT
# MEASUREMENT_DESCRIPTION: Inhibition of recombinant human 17β-HSD2
# Format: biochemical
# TEST_CONTEXT: inhibitor at 1 μM; 50 nM estradiol, 1 mM NADH, 30 min at RT; read-out: 17β-HSD2 Inhibition % at 1 μM
The figure you give is taken to be in %; do not add the unit.

Query block: Read off the recorded inhibition at 1 µM for Cc1cnc(NC(=O)CC[C@@H]2CC(=O)[C@@]3(C)CCC4c5cc(CN6CCOCC6)c(O)c([N+](=O)[O-])c5CCC4C23)s1 (stereo partly shown) [Compound 43]
Result block: 0

Query block: Determine from records and report inhibition at 1 µM for Cc1cnc(NC(=O)CC[C@@H]2CC(=O)[C@@]3(C)CCC4c5cc(F)c(O)c(Br)c5CCC4C23)s1 (stereo partly shown) [Compound 72]
Result block: 10

Query block: Report inhibition at 1 µM for Cc1cnc(NC(=O)CC[C@@H]2CC(=O)[C@@]3(C)CCC4c5ccc6oc(=O)[nH]c6c5CCC4C23)s1 (stereo partly shown) [Compound 51]
Result block: 1

Query block: Quote inhibition at 1 µM reported for Cc1cnc(NC(=O)CC[C@@H]2CC(=O)[C@@]3(C)CCC4c5cc(N)c(O)cc5CCC4C23)s1 (stereo partly shown) [Compound 37] please.
Result block: 4

----------
# TARGET_OR_TEST_SYSTEM: recombinant human 17β-HSD1 (Homo sapiens)
# Construct: made in house; host or cells: Sd9 (Sf9) insect cells, baculovirus (Bac to Bac Expression System)
# Sequence (P14061 1-328): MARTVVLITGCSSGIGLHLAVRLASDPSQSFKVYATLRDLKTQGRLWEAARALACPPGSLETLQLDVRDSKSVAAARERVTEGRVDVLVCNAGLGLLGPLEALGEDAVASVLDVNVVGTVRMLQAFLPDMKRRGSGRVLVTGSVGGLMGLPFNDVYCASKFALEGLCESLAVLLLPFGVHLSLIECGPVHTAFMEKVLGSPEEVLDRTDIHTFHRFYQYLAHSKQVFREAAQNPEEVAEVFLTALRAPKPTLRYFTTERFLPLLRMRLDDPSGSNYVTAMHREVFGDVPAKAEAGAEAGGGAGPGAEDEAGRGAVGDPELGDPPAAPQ
# MEASUREMENT_DESCRIPTION: Inhibition of recombinant human 17β-HSD1
# Assay type: biochemical
# TEST_CONTEXT: inhibitor at 1 μM; 30 nM estrone, 1 mM NADPH, 30 min at RT; read-out: 17β-HDS1 Inhibition % at 1 μM
Assign inhibition at 1 µM to each entry below.
Return type: number; implicit unit %.

Query block: Entry Cc1cnc(NC(=O)CC[C@@H]2CC(=O)[C@@]3(C)CCC4c5ccc(OS(C)(=O)=O)cc5CCC4C23)s1 (stereo partly drawn) [Compound 2] needs its inhibition at 1 µM filled in; supply it.
Result block: 95

Query block: Kindly indicate its recorded inhibition at 1 µM. Item: COc1ccc2c(c1)CCC1C2CC[C@]2(C)C(=O)/C(=C/O)[C@@H](CCC(=O)Nc3ncc(C)s3)C12 (stereo partly drawn) [Compound 97]
Result block: 92

Query block: Give the reported value of inhibition at 1 µM for this record: Cc1cnc(NC(=O)CC[C@@H]2CC(=O)[C@@]3(C)CCC4c5ccc6ocnc6c5CCC4C23)s1 (stereo partly drawn) [Compound 46]
Result block: 87

Query block: Read off the recorded inhibition at 1 µM for Cc1cnc(NC(=O)CC[C@@H]2CC(=O)[C@@]3(C)CCC4c5ccc(O)c(Cl)c5CCC4C23)s1 (stereo partly drawn) [Compound 63]
Result block: 99

Query block: Given Cc1cnc(NC(=O)CC[C@@H]2CC(=O)[C@@]3(C)CCC4c5cc(O)ccc5CCC4C23)s1 (stereo partly drawn) [Compound 88] , respond with its inhibition at 1 µM.
Result block: 93

Query block: Give the measured inhibition at 1 µM for Cc1cnc(NC(=O)CC[C@@H]2CC(=O)[C@@]3(C)CCC4c5ccc(OS(=O)(=O)N(C)C)cc5CCC4C23)s1 (stereo partly drawn) [Compound 23]
Result block: 74

Query block: Tell us which inhibition at 1 µM value is on record for CCOC(=O)Oc1ccc2c(c1)CCC1C2CC[C@]2(C)C(=O)C[C@@H](CCC(=O)Nc3ncc(C)s3)C12 (stereo partly drawn) [Compound 20]
Result block: 52

Query block: Give me measured inhibition at 1 µM, please, for this compound: Cc1cnc(NC(=O)CC[C@@H]2CC(=O)[C@@]3(C)CCC4c5cc(C(C)C)c(O)cc5CCC4C23)s1 (stereo partly drawn) [Compound 32]
Result block: 84

Query block: Tell me inhibition at 1 µM reported for Cc1cnc(NC(=O)CC[C@@H]2CC(=O)[C@@]3(C)CCC4c5c([N+](=O)[O-])ccc(O)c5CCC4C23)s1 (stereo partly drawn) [Compound 94]
Result block: 95

Query block: Tell me inhibition at 1 µM reported for COc1cc2c(cc1I)C1CC[C@]3(C)C(=O)C[C@@H](CCC(=O)Nc4ncc(C)s4)C3C1CC2 (stereo partly drawn) [Compound 52]
Result block: 93

Query block: Please report the measured inhibition at 1 µM for CC(=O)NCC(=O)Oc1ccc2c(c1)CCC1C2CC[C@]2(C)C(=O)C[C@@H](CCC(=O)Nc3ncc(C)s3)C12 (stereo partly drawn) [Compound 11]
Result block: 87

Query block: Specify reported inhibition at 1 µM for the compound shown: Cc1cnc(NC(=O)CC[C@@H]2CC(=O)[C@@]3(C)CCC4c5cc(C(C)(C)C)c(O)cc5CCC4C23)s1 (stereo partly drawn) [Compound 31]
Result block: 87

Query block: Supply measured inhibition at 1 µM of Cc1cnc(NC(=O)CC[C@@H]2CC(=O)[C@@]3(C)CCC4c5cc(CN(C)C)c(O)cc5CCC4C23)s1 (stereo partly drawn) [Compound 44] in your reply.
Result block: 91

Query block: Provide only the value of recorded inhibition at 1 µM for Cc1nc2cc3c(cc2o1)CCC1C3CC[C@]2(C)C(=O)C[C@@H](CCC(=O)Nc3ncc(C)s3)C12 (stereo partly drawn) [Compound 48]
Result block: 91

Query block: Provide inhibition at 1 µM value for the following compound: Cc1cnc(NC(=O)CC[C@@H]2CC(=O)[C@@]3(C)CCC4c5cc(CN6CCCC6)c(O)cc5CCC4C23)s1 (stereo partly drawn) [Compound 45]
Result block: 83

Query block: State its inhibition at 1 µM for this compound: Cc1cnc(NC(=O)CC[C@@H]2CC(=O)[C@@]3(C)CCC4c5ccc(OS(=O)(=O)O)cc5CCC4C23)s1 (stereo partly drawn) [Compound 5]
Result block: 92

Query block: Provide measured inhibition at 1 µM value, entry: Cc1cnc(NC(=O)CC[C@@H]2CC(=O)[C@@]3(C)CCC4c5ccccc5CCC4C23)s1 (stereo partly drawn) [Compound 83]
Result block: 92

Query block: Quick one: give measured inhibition at 1 µM for Cc1cnc(NC(=O)CC[C@@H]2CC(=O)[C@@]3(C)CCC4c5ccc(OS(C)(=O)=O)c(N)c5CCC4C23)s1 (stereo partly drawn) [Compound 40]
Result block: 75

Query block: Read off the recorded inhibition at 1 µM for Cc1cnc(NC(=O)CC[C@@H]2CC(=O)[C@@]3(C)CCC4c5cc(I)c(O)c(I)c5CCC4C23)s1 (stereo partly drawn) [Compound 53]
Result block: 94

Query block: Kindly indicate its recorded inhibition at 1 µM. Item: Cc1cnc(NC(=O)CC[C@@H]2CC(=O)[C@@]3(C)CCC4c5cccc(N)c5CCC4C23)s1 (stereo partly drawn) [Compound 89]
Result block: 71

Query block: # return recorded inhibition at 1 µM for input COc1ccc2c(c1)CCC1C2CC[C@]2(C)C(=O)C[C@@H](CCC(=O)Nc3ncc(C)s3)C12 (stereo partly drawn) [Compound X, reference compound]
Result block: 96

Query block: State its inhibition at 1 µM for this compound: Cc1cnc(NC(=O)CC[C@@H]2CC(=O)[C@@]3(C)CCC4c5cc(Br)c(O)c(F)c5CCC4C23)s1 (stereo partly drawn) [Compound 71]
Result block: 91

Query block: State its inhibition at 1 µM for this compound: Cc1cnc(NC(=O)CC[C@@H]2CC(=O)[C@@]3(C)CCC4c5cc(Br)c(O)c(Br)c5CCC4C23)s1 (stereo partly drawn) [Compound 58]
Result block: 95

Query block: Output inhibition at 1 µM of Cc1cnc(NC(=O)CC[C@@H]2CC(=O)[C@@]3(C)CCC4c5ccc(OS(C)(=O)=O)c([N+](=O)[O-])c5CCC4C23)s1 (stereo partly drawn) [Compound 39]
Result block: 96

Query block: Consider the compound Cc1cnc(NC(=O)CC[C@@H]2CC(=O)[C@@]3(C)CCC4c5ccc(OS(=O)(=O)C(F)(F)F)cc5CCC4C23)s1 (stereo partly drawn) [Compound 79] . State its measured inhibition at 1 µM.
Result block: 72

Query block: Supply inhibition at 1 µM value. Item: Cc1cnc(NC(=O)CC[C@@H]2CC(=O)[C@@]3(C)CCC4c5cc(N)ccc5CCC4C23)s1 (stereo partly drawn) [Compound 87]
Result block: 87

Query block: Annotate the compound Cc1cnc(NC(=O)CC[C@@H]2CC(=O)[C@@]3(C)CCC4c5cccc([N+](=O)[O-])c5CCC4C23)s1 (stereo partly drawn) [Compound 85] with its measured inhibition at 1 µM.
Result block: 93

Query block: Look up and state reported inhibition at 1 µM for Cc1cnc(NC(=O)CC[C@@H]2CC(=O)[C@@]3(C)CCC4c5cc(O)c(O)cc5CCC4C23)s1 (stereo partly drawn) [Compound 68]
Result block: 88

Query block: Identify measured inhibition at 1 µM corresponding to Cc1cnc(NC(=O)CC[C@@H]2CC(=O)[C@@]3(C)CCC4c5cc(F)c(O)c(Br)c5CCC4C23)s1 (stereo partly drawn) [Compound 72]
Result block: 89

Query block: Identify measured inhibition at 1 µM associated with CC(=O)Oc1ccc2c(c1)CCC1C2CC[C@]2(C)C(=O)C[C@@H](CCC(=O)Nc3ncc(C)s3)C12 (stereo partly drawn) [Compound 1]
Result block: 92
